# System: MS2 coat protein
# assay.procedure: apparent KD of MS2 coat protein; designed switch direction (-1 OFF switch, 1 ON switch): -1; higher = weaker reporter binding
# measurement.setup: Eterna round: R98; input ligand: FMN 200 uM

[
  {
    "primary.sequence": "CAGAUAAAAGUGAGGUCGUCGACAUGAGGAUCACCCAUGUACGAGGAUAUGUAAUAUACGGUAUAGCAGAAGGCGUAUGGGUGU [Edrageer]",
    "apparent KD of MS2 coat protein / nM": 120
  },
  {
    "primary.sequence": "GUCACGAAUGUAGGAUAUCGAGUGGAUAACACUCGAGAAGGACAUGAGGAUCACCCAUGUCAAAUGAAAGAUAAUAAACGUGAC [Exclsuion NG 1/3-B2]",
    "apparent KD of MS2 coat protein / nM": 20.6
  },
  {
    "primary.sequence": "UUGCUCAAUUGGGCAGGGACCUCACAUGAGGAUCACCCAUGUCAGGAUAUCCUAGUUUGGACGUAGGAGAAGGGACGGAGUAUC [Usanat]",
    "apparent KD of MS2 coat protein / nM": 250
  },
  {
    "primary.sequence": "AGAUGACAAAGUCAUCUCGCUCUGACAUGAGGAUCACCCAUGUAGGAUAUAUUACUCAAAGAGUAAUAGAAGGACAUGUUUCUG [Ex NG2 #64]",
    "apparent KD of MS2 coat protein / nM": 65.5
  },
  {
    "primary.sequence": "UAUAUAUAGGCAGGAUAUACAUGUAUAUAUAAUUUAUUAUAUAUUAUUACAUGAGGAUCACCCAUGUAGAAGGGCCAUAUUAUA [LRO037_Exclusion NG 2]",
    "apparent KD of MS2 coat protein / nM": 51.2
  },
  {
    "primary.sequence": "GGUACUCAAAGAGUACCAAUACGAACAUGAGGAUCACCCAUGUAGGAUAUGCUACUCAAAGAGUAGCAGAAGGACAUGUGCCUA [OmeiMod 7 - Jieux - Exclusion NG 3]",
    "apparent KD of MS2 coat protein / nM": 422
  }
]

---

# System: MS2 coat protein
# assay.procedure: apparent KD of MS2 coat protein; higher = weaker reporter binding
# measurement.setup: Eterna round: R107; input ligand: theophylline 2 mM
Each record here notes measured apparent KD of MS2 coat protein.
assay.metric: apparent KD of MS2 coat protein (nM)

[
  {
    "primary.sequence": "GCAUCCUAGUCGGCCGCCACUACAACAUGAGGAUCACCCAUGUGUGGGAGAUCCGUCCUACGAAGUAGGACCGGGACUAGGAUGC [(T1)-(M1)-(M2)-(T)''-(M)'-(T)'-(T2)_Design5_2/18/17]",
    "obs.value": 324
  },
  {
    "primary.sequence": "GAGGGUGAAUCUCUAGUCCGUUUGACGGAUACCAGCGAGAGGUAUCGCCCUUGGCAGCCGACGACAUGAGGAUCACCCAUGUUAA [#07 Exclusion-TheophyllineA]",
    "obs.value": 22
  },
  {
    "primary.sequence": "CGUAUGUAGACGGCCGCCACUGGAACCUGAGGAUCACCCAGGUACAGGGUGGGUAACUCGAGAGUCAGGACCGGGUCUACAUACA [Tryp B Ex t3]",
    "obs.value": 64.3
  },
  {
    "primary.sequence": "ACAUGAGGAUCACCCAUGUAAUAAUCAGAAGGAGCGUGGAAUAACACAGGUAGGUCGCUGAUGUUUGGUUAAAAUUAUUCGUGAA [JR_ExcArginiA_Sub001]",
    "obs.value": 14
  },
  {
    "primary.sequence": "UGGGUAGAAUAGAUAGAUAGAUAAACUGAAGGAGCGAGAAUAAACUCAGGUAGGUCGCAGACAUGAGGAUCACCCAUGUAGAUGG [Same State Arginine A GF15]",
    "obs.value": 163
  }
]

---

Each record here notes measured apparent KD of MS2 coat protein.
# Tested on: MS2 coat protein
# assay.procedure: apparent KD of MS2 coat protein; designed switch direction (-1 OFF switch, 1 ON switch): -1; higher = weaker reporter binding
# measurement.setup: Eterna round: R95; input ligand: FMN 200 uM

[
  {
    "primary.sequence": "GAUGUGGGUUUCCGGAGGAACAUGAGGAUCACCCAUGUAGAAGUUGGAGGGAUAACGCUUUUUGCUCGUUACACGUG [JR_SV3TOV1_Sub055] (puzzle: Sensor v3, turn-off variant 1)",
    "apparent KD of MS2 coat protein [µM]": 0.178
  },
  {
    "primary.sequence": "AUAGGGUCAGGAUAUACGAGCAGGAGGAUGGAGCGGAGGCGGUAGAAGGGACAUGAGGAUCACCCAUGUAAGAA [JR_Exclu4_Sub052] (puzzle: Exclusion 4)",
    "apparent KD of MS2 coat protein [µM]": 0.0214
  },
  {
    "primary.sequence": "AUAAAGUCAGGAUAUCGAAGUGAGUGGAGAGGAGGGAGGUACGAGAAGGGACAUGAGGAUCACCCAUGUAGGAA [JR_Exclusion4)Sub006] (puzzle: Exclusion 4)",
    "apparent KD of MS2 coat protein [µM]": 0.0255
  }
]

---

# Tested on: MS2 coat protein
# assay.procedure: apparent KD of MS2 coat protein; designed switch direction (-1 OFF switch, 1 ON switch): -1; higher = weaker reporter binding
# measurement.setup: input ligand: none
assay.metric: apparent KD of MS2 coat protein

[
  {
    "primary.sequence": "CGUCCUGAUGACAACUUACAUGAGGAUCACCCAUGUGCCUCGCAGGAUAUCCCAGCACGUCGCAAGGAGAAGGGCGACGCGCCA [Ceeninge] (Eterna round: R96, puzzle: Exclusion NG 3)",
    "obs.value": "19 nM"
  },
  {
    "primary.sequence": "GCUAGAGCAGGAUAUCUAGAUCCUCACAUGAGGAUCACCCAUGUAGUCGAAAGACUAAGAAGAGAAGGGCUCUAGC [Omei Ex5 E17] (Eterna round: R97, puzzle: Exclusion 5)",
    "obs.value": "8.81 nM"
  },
  {
    "primary.sequence": "AAAACGUGAGGAUAUCCAAUAUAUGACAUGAGGAUCACCCAUGUUUCCACUCGUACCUCCGGAGAAGGCACAAUAA [Ex5 #76] (Eterna round: R97, puzzle: Exclusion 5)",
    "obs.value": "56.2 nM"
  },
  {
    "primary.sequence": "AACAUGUGAGGAUAUGAGAACAGUCCGGAGGACUGUGUAAAUUAGAAGGCACAUGAGGAUCACCCAUGUGACCU [Laonar] (Eterna round: R97, puzzle: Exclusion 4)",
    "obs.value": "15.8 nM"
  },
  {
    "primary.sequence": "UCCCGGGUAGGAUAUGCUAGGGUAUGUUCACUUGAUUUAGGACAUGAGGAUCACCCAUGUAGAAGGGCCCGUCG [Eternabot (L1) Solution 25] (Eterna round: R97, puzzle: Exclusion 2)",
    "obs.value": "459 nM"
  },
  {
    "primary.sequence": "GCGCACCUACCAAAAGGUAGGUCAACAUGAGGAUCACCCAUGUAGGAUAUCGAUUGCUUUGCAGUCGAGAAGGAUAUGAUGCGC [JL ENG3 3.80 Mod 12] (Eterna round: R96, puzzle: Exclusion NG 3)",
    "obs.value": "24 nM"
  },
  {
    "primary.sequence": "AGAUGCUCGAGUCGACAUGAGGAUCACCCAUGUACAGUUAAUGAGGAUAUCUGAGACAAAUAGUAGGAGAAGGCGUGAACAUGA [Ex NG3 #11] (Eterna round: R96, puzzle: Exclusion NG 3)",
    "obs.value": "90.9 nM"
  },
  {
    "primary.sequence": "UAUGACUGAGGAUAUUGUACUGCUGACAUGAGGAUCACCCAUGUAUGCUAACUCGGCCGUCGAGAAGGCAGUUAUG [BotMod 26 - Jieux - Exclusion 5] (Eterna round: R97, puzzle: Exclusion 5)",
    "obs.value": "52 nM"
  },
  {
    "primary.sequence": "UAUUAGCAAGCGAGAUCCCACAUGAGGAUCACCCAUGUGCUCGUGCAUCCAGAAUUACUGGGUGCAGCUCGUCUUAU [Winner reversed engineered 12] (Eterna round: R97, puzzle: Sensor, turn-off variant 1)",
    "obs.value": "14.7 nM"
  },
  {
    "primary.sequence": "CAUUAGCGAGGAUAUACAUGAGGAUCACCCAUGUGAUCCUAAGGCUGAUGAAGCCUAUGUAGAAGGCGCAAAUU [jl-ex3.4.54 ViennaUCT mod] (Eterna round: R97, puzzle: Exclusion 3)",
    "obs.value": "42.2 nM"
  }
]

---

# System: MS2 coat protein
# assay.procedure: apparent KD of MS2 coat protein; designed switch direction (-1 OFF switch, 1 ON switch): -1; higher = weaker reporter binding
# measurement.setup: input ligand: FMN 200 uM
assay.metric: apparent KD of MS2 coat protein (nM)

[
  {
    "primary.sequence": "GGUUGGCGAGGAUAUACAUGAGGAUCACCCAUGUGGUCCUGAGAUAGAAUAGCCCUUUGUAGAAGGCGCGGGUC [salish99_ex3_r4_044] (Eterna round: R97, puzzle: Exclusion 3)",
    "assay.metric": "apparent KD of MS2 coat protein",
    "obs.value": 203
  },
  {
    "primary.sequence": "AAAUGGGCGUAGGAUAUGAGAUGGUCUAGCAGCUCAGAAGGACGCACAUGAGGAUCACCCAUGUGAUCGGACUA [Celebidi] (Eterna round: R96, puzzle: Exclusion 6)",
    "assay.metric": "apparent KD of MS2 coat protein",
    "obs.value": 281
  },
  {
    "primary.sequence": "GAUCAUGCAGGAUAUACAUGGAACAUGAAAACAUGAAUUUCACAUGAGGAUCACCCAUGUAGAAGGGCAUGAUC [Omei Ex2 A12] (Eterna round: R97, puzzle: Exclusion 2)",
    "assay.metric": "apparent KD of MS2 coat protein",
    "obs.value": 54.2
  },
  {
    "primary.sequence": "AUCGUGCAGCUUUGCUGUACGAGUACAUGAGGAUCACCCAUGUAGGAUAUGGUACGCUUUGCGUGCUAGAAGGAUAUGUGUAGG [JL EXNG3 1.36] (Eterna round: R96, puzzle: Exclusion NG 3)",
    "assay.metric": "apparent KD of MS2 coat protein",
    "obs.value": 49.1
  },
  {
    "primary.sequence": "CGUUCGCGUGUAGGAUAUGUGUCUGUGUCGGGCGCAGAAGGACAUGAGGAUCACCCAUGUCUGCGGGUGUGGGCGCUCUCUGCG [-29, -28 kcal A 14%] (Eterna round: R96, puzzle: Exclusion NG 1)",
    "assay.metric": "apparent KD of MS2 coat protein",
    "obs.value": 69.6
  }
]
